Origin of the recorded values: patent EP1322622B1

Target: CHO/5-HT1A cells (Homo sapiens, UniProt P08908)
Construct: expressed in transfected cells; host or cells: CHO/5-HT1A cells
Sequence (P08908 1-422): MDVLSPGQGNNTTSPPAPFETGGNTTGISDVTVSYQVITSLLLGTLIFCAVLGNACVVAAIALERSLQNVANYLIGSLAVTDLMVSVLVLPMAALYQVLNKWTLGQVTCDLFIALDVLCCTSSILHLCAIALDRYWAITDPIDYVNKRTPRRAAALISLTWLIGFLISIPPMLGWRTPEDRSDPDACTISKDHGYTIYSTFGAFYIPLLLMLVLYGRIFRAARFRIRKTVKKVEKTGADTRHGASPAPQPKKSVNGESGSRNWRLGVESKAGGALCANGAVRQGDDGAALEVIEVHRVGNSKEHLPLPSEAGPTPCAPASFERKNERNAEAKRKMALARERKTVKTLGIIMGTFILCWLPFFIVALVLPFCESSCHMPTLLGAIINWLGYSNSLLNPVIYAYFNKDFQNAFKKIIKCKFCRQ
Assay: 5-HT1A Functional assay (cAMP)
Assay type: cell-based
Details: 10 µM compound; % inhibition of the cAMP accumulation induced by 10 µM FSK; read-out: 5-HT1A cAMP % inhib.
READOUT_NAME: inhibition at 10 µM
Please report the result as a number followed by the unit.

Example molecules with recorded inhibition at 10 µM:
COCCn1c(=O)n(CCN2CCN(c3cccc(Cl)c3)CC2)c2ccccc21 [compound 164] ... 73%
Cc1cccc(N2CCN(C/C=C/Cn3c(=O)n(CCNS(C)(=O)=O)c4ccccc43)CC2)c1 [compound 536] ... 55%

Q) Fill blank: measured inhibition at 10 µM of the molecule O=c1n(C/C=C/CN2CCN(c3ccccn3)CC2)c2ccccc2n1CCN1CCCCC1 [compound 330] is ____.
A) 62%

Q) Reported inhibition at 10 µM for Cc1cccc(N2CCN(CCn3c(=O)n(CCNS(C)(=O)=O)c4ccccc43)CC2)c1C [compound 254] : what is it?
A) 66%
